System: Escherichia coli TOP10
method: shrunken log2 fold change of peptide-encoding DNA abundance (4.5 h post-induction vs induction); higher = less antimicrobial activity (less host growth inhibition)
measurementSetup: time post-induction: 4.5 h; library: site-saturation at positions 5, 18, 19, 20
# thresholds on shrunken log2 fold change define classes: low group (below -0.2), middle group (-0.2 to below 0.1), high group (0.1 or more)

Q: Class label required: RRIRDRPPRLPRPRPRPDQWPRP
A: high group

Q: Repeat with RRIRYRPPRLPRPRPRPWAAPRP
A: middle group

----------
Test system: Escherichia coli TOP10;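 also: peptides expressed intracellularly from a pBAD plasmid library in pooled LB shake-flask culture, induced with 0.3% L-arabinose, DNA abundance read by NGS, three biological replicates, DESeq2 with apeglm shrinkage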
method: shrunken log2 fold change of peptide-encoding DNA abundance (4.5 h post-induction vs induction); higher = less antimicrobial activity (less host growth inhibition)
measurementSetup: time post-induction: 4.5 h; library: site-saturation at positions 5, 18, 19, 20
Label Fulfilled for high-side shrunken log2 fold change (at or above -0.02) and Not fulfilled for low-side shrunken log2 fold change (below it).

Previously resolved entries follow.
>>> answerlabel("RRIRVRPPRLPRPRPRPWTMPRP")
"Not fulfilled"
>>> answerlabel("RRIRHRPPRLPRPRPRPFAQPRP")
"Not fulfilled"
>>> answerlabel("RRIRKRPPRLPRPRPRPDKVPRP")
"Fulfilled"
>>> answerlabel("RRIRHRPPRLPRPRPRPNRGPRP")
"Not fulfilled"
>>> answerlabel("RRIRSRPPRLPRPRPRPIIFPRP")
"Not fulfilled"
>>> answerlabel("RRIRCRPPRLPRPRPRPKSHPRP")
"Not fulfilled"

Q: Is reported shrunken log2 fold change greater than or equal to -0.02 here: RRIRWRPPRLPRPRPRPKSFPRP
A: Fulfilled

Q: Same thing, different sequence: RRIRGRPPRLPRPRPRPGYRPRP
A: Fulfilled
